Measured values drawn from ChEMBL document CHEMBL1138560 for this set.

System: Rattus norvegicus
EXPERIMENT SUMMARY: Antiinflammatory activity against carrageenan-induced paw edema in Charles Foster albino rat at 50 mg/kg, po administered 30 mins before carrageenan challenge measured after 1 to 3 hrs
Type: functional
Parameter Activity: see the listing below.

MOLECULE | MEASUREMENT UNITS | Activity
COc1ccc(-n2c(-c3ccccc3)cs/c2=N\C(=N)c2ccccn2)cc1 | % | 17
N=C(/N=c1\scc(-c2ccc(Br)cc2)n1-c1ccc2ccccc2c1)c1ccccn1 | % | 0
O=C(CC1NC(=O)NC1=O)/N=c1\scc(-c2ccccc2)n1-c1ccc(Cl)cc1 (stereo not drawn) | % | 10
